These measurements were taken from patent US20120135923A1.

Listed substances paired with reported cAMP EC50
- TESTED SYSTEM: hMC4-R (human) (UniProt P32245)
- Sequence (P32245 whole entry): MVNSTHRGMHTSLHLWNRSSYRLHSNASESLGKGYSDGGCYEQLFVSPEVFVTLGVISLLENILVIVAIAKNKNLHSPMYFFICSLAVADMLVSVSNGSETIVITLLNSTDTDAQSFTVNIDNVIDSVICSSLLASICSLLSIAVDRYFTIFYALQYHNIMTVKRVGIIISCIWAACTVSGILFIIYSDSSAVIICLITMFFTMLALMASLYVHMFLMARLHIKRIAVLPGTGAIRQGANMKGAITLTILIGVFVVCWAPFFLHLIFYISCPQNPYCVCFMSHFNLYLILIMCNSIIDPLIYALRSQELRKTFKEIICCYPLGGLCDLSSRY
- PROTOCOL NOTES: cell-based or functional assay
Numeric answer only, unit nM assumed.

Form field cAMP EC50 for item Ac-Nle-c(Pen-D-Ala-His-D-Phe-Arg-Trp-Cys)-NH2 (peptide; unit assumed) on hMC4-R (human) (UniProt P32245): 0.531

Form field cAMP EC50 for item Hydantoin(C(O)-(Gly-Arg))-c(Cys-Glu-His-D-Phe-Arg-Trp-Cys)-NH2 (peptide; unit assumed) on hMC4-R (human) (UniProt P32245): 0.0687

Form field cAMP EC50 for item Hydantoin(C(O)-(Ala-Gly))-c(Cys-D-Ala-His-D-Phe-Arg-Trp-Cys)-NH2 (peptide; unit assumed) on hMC4-R (human) (UniProt P32245): 0.241

Form field cAMP EC50 for item Hydantoin(C(O)-(Gly-D-Arg))-c(Cys-Glu-His-D-Phe-Arg-Trp-Cys)-NH2 (peptide; unit assumed) on hMC4-R (human) (UniProt P32245): 0.125

====

- TESTED SYSTEM: hMC5-R (human) (UniProt P33032)
- Sequence (P33032 whole entry): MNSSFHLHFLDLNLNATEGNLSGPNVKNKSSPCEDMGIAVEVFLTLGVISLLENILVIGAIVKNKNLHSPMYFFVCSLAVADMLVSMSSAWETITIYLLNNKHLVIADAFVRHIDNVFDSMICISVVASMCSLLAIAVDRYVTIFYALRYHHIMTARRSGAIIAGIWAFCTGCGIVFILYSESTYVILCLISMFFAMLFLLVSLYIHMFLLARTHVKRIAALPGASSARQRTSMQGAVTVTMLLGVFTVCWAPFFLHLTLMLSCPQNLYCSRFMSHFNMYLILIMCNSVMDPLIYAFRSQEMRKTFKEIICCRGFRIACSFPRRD
- PROTOCOL NOTES: competition with [125I]-NDP-α-MSH, CHO-K1 membranes
Ki less than 0.1 µM is condition met; Ki greater than or equal to 0.1 µM is condition not met.

Past entries and their recorded results:
# SUBSTANCE, CLASS NAME
data = [
    ("Ac-Nle-c(Cys-D-Ala-His-D-2-Nal-Arg-Bal-Cys)-NH2 (peptide)", "condition not met"),
    ("Ac-D-Arg-c(Cys-D-Ala-His-D-Phe-Arg-Trp-Pen)-NH2 (peptide)", "condition not met"),
    ("Ac-Nle-c(Cys-3-Pal-D-Phe-Arg-Trp-Gaba-Cys)-NH2 (peptide)", "condition met"),
]

In: Take the substance Ac-Cha-c(Asp-His-D-2-Nal-Arg-Trp-Gaba-Lys)-NH2 (peptide) and say whether its Ki is less than 0.1 µM.
Out: condition met

In: Take the substance Ac-D-Arg-c(Cys-D-Ala-His-D-Phe-Arg-Trp-Cys)-NH2 (peptide) and say whether its Ki is less than 0.1 µM.
Out: condition not met

====

Listed substances paired with reported pKi
- TESTED SYSTEM: human melanocortin receptor subtype 3 (hMC3-R) (human)
- PROTOCOL NOTES: [125I]-NDP-α-MSH competition, membranes
Recall that pKi is obtained by taking minus log10 of the concentration measured in molar.

# SUBSTANCE, RECORDED METRIC, ASSAY RESULT
data = [
    ("Hydantoin(C(O)-(D-Arg-Gly))-c(Cys-D-Ala-His-D-Phe-Arg-Trp-Cys)-NH2 (peptide)", "pKi", 7.31),
    ("Hydantoin(C(O)-(D-Arg-Gly))-c(Cys-Glu-His-D-Phe-Arg-Trp-Cys)-NH2 (peptide)", "pKi", 6.91),
    ("Hydantoin(C(O)-(Gly-D-Arg))-c(Cys-Glu-His-D-Phe-Arg-Trp-Cys)-NH2 (peptide)", "pKi", 7.11),
]

Okay, next one:
Measured pKi, Hydantoin(C(O)-(D-Ala-Nle))-c(Cys-D-Ala-His-D-Phe-Arg-Trp-Cys)-NH2 (peptide) : 7.19

====

- TESTED SYSTEM: hMC1-R (human)
- PROTOCOL NOTES: cell-based or functional assay
RECORDED METRIC: cAMP EC50 (nM)
Numeric answer only, unit nM assumed.

Recorded cAMP EC50, per entry:
# SUBSTANCE, ASSAY RESULT
data = [
    ("Ac-hPhe-c(Asp-His-D-2-Nal-Arg-Trp-Gaba-Lys)-NH2 (peptide; unit assumed)", 0.413),
    ("Ac-Nle-c(Cys-D-Cha-His-D-Phe-Arg-Trp-Cys)-NH2 (peptide; unit assumed)", 0.819),
    ("Hydantoin(C(O)-(Gly-D-Arg))-c(Cys-D-Ala-His-D-Phe-Arg-Trp-Cys)-NH2 (peptide; unit assumed)", 7.53),
    ("Ac-Nle-c(Asp-His-D-2-Nal-Arg-Trp-β-Ala-Lys)-NH2 (peptide; unit assumed)", 0.913),
    ("Ac-Nle-c(Asp-His-D-Phe-Arg-Trp-Gaba-Lys)-NH2 (peptide; unit assumed)", 1.37),
]

Okay, next one:
Measured cAMP EC50, Ac-Nle-c(Cys-D-Ala-His-D-2-Nal-Arg-Trp-Cys)-NH2 (peptide; unit assumed) : 17.6

====

- TESTED SYSTEM: hMC1-R (human) (UniProt Q01726)
- Sequence (Q01726 whole entry): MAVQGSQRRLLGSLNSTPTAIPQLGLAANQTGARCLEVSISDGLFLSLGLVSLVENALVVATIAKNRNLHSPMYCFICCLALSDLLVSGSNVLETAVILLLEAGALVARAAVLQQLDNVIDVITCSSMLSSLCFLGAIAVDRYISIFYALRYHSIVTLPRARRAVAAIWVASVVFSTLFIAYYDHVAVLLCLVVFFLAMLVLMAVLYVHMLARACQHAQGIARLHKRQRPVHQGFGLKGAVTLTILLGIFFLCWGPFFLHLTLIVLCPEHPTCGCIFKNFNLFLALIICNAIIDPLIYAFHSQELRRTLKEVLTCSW
- PROTOCOL NOTES: cell-based or functional assay
Listed substances paired with reported cAMP EC50
Numeric answer only, unit nM assumed.

Recorded cAMP EC50, per entry:
# SUBSTANCE, cAMP EC50 (nM)
data = [
    ("Ac-Arg-c(Cys-D-Ala-His-D-Phe-Arg-Trp-Pen)-NH2 (peptide; unit assumed)", 48.3),
    ("Ac-D-Arg-c(Cys-D-Ala-His-D-Phe-Arg-Trp-Pen)-NH2 (peptide; unit assumed)", 26.5),
]

Measured cAMP EC50, Ac-hCha-c(Asp-His-D-Phe-Arg-Trp-Gaba-Lys)-NH2 (peptide; unit assumed) : 2.27

Measured cAMP EC50, Ac-Nle-c(Asp-His-D-2-Nal-Arg-Trp-Ala-Lys)-NH2 (peptide; unit assumed) : 0.619

Measured cAMP EC50, Hydantoin(C(O)-(Gly-Gly))-c(Cys-Glu-His-D-Phe-Arg-Trp-Cys)-NH2 (peptide; unit assumed) : 124

Measured cAMP EC50, Hydantoin(C(O)-(Gly-Gly))-c(Cys-D-Ala-His-D-Phe-Arg-Trp-Cys)-NH2 (peptide; unit assumed) : 14.2

Measured cAMP EC50, Hydantoin(C(O)-(Gly-Arg))-c(Cys-Glu-His-D-Phe-Arg-Trp-Cys)-NH2 (peptide; unit assumed) : 9.97

Measured cAMP EC50, Hydantoin(C(O)-(Gly-D-Arg))-c(Cys-Glu-His-D-Phe-Arg-Trp-Cys)-NH2 (peptide; unit assumed) : 12.9

Measured cAMP EC50, Ac-Cha-c(Asp-His-D-Phe-Arg-Trp-Gaba-Lys)-NH2 (peptide; unit assumed) : 3.26

====

- TESTED SYSTEM: hMC1-R (human) (UniProt Q01726)
- PROTOCOL NOTES: cell-based or functional assay
RECORDED METRIC: cAMP EC50 (nM)
Numeric answer only, unit nM assumed.

# SUBSTANCE, RECORDED METRIC, QUANTITY UNIT, ASSAY RESULT
measured = [
    ("Hydantoin(C(O)-(D-Ala-Gly))-c(Cys-D-Ala-His-D-Phe-Arg-Trp-Cys)-NH2 (peptide; unit assumed)", "cAMP EC50", "nM", 4.7),
    ("Ac-Nle-c(Cys-D-Ala-His-D-Phe-Arg-Trp-Cys)-NH2 (peptide; unit assumed)", "cAMP EC50", "nM", 2.4),
    ("Ac-Cha-c(Asp-His-D-2-Nal-Arg-Trp-Gaba-Lys)-NH2 (peptide; unit assumed)", "cAMP EC50", "nM", 1.27),
    ("Hydantoin(C(O)-(Gly-Arg))-c(Cys-D-Ala-His-D-Phe-Arg-Trp-Cys)-NH2 (peptide; unit assumed)", "cAMP EC50", "nM", 8.85),
    ("Hydantoin(C(O)-(Nle-Gly))-c(Cys-Glu-His-D-Phe-Arg-Trp-Cys)-NH2 (peptide; unit assumed)", "cAMP EC50", "nM", 54.3),
]

Okay, next one:
Measured cAMP EC50, Ac-D-Arg-c(Asp-His-D-Phe-Arg-Trp-Ala-Lys)-NH2 (peptide; unit assumed) : 1.48

====

- TESTED SYSTEM: human melanocortin receptor subtype 4 (hMC4-R) (human)
- PROTOCOL NOTES: [125I]-NDP-α-MSH competition, membranes
RECORDED METRIC: Ki (nM)
Numeric answer only, unit nM assumed.

Recorded Ki, per entry:
# SUBSTANCE, ASSAY RESULT
data = [
    ("Hydantoin(C(O)-(Gly-D-Arg))-c(Cys-Glu-His-D-Phe-Arg-Trp-Cys)-NH2 (peptide)", 1.77),
    ("Hydantoin(C(O)-(D-Ala-Gly))-c(Cys-D-Ala-His-D-Phe-Arg-Trp-Cys)-NH2 (peptide)", 4.28),
    ("Hydantoin(C(O)-(D-Arg-Gly))-c(Cys-Glu-His-D-Phe-Arg-Trp-Cys)-NH2 (peptide)", 2.95),
]

Okay, next one:
Form field Ki for item Hydantoin(C(O)-(D-Arg-Gly))-c(Cys-D-Ala-His-D-Phe-Arg-Trp-Cys)-NH2 (peptide) on human melanocortin receptor subtype 4 (hMC4-R) (human): 5.78
